These measurements were taken from patent US20230416293A1.

# procedure summary: 1-octanol/PBS partition coefficient (Log P)
# Format: physicochemical
# settings: room temperature, PBS pH 7.4, quintuplicate
Can you tell me Partition coefficients of 1-octanol/PBS for the items I'm about to list?
Numbers only.

Below are worked cases with known answers.
Consider the compound shown here: O=c1[nH]c(=O)n([C@@H]2O[C@H](CO)[C@@H](O)[C@@H]2[18F])cc1Cl [[^18F]FCAU] What is its recorded Partition coefficients of 1-octanol/PBS? 0.334

Which value of Partition coefficients of 1-octanol/PBS has been reported for O=c1ccn([C@@H]2O[C@H](CO)[C@@H](O)[C@@H]2[18F])c(=O)[nH]1 [[^18F]FAU] in the records? 0.114

Which value of Partition coefficients of 1-octanol/PBS has been reported for Cc1cn([C@@H]2O[C@H](CO)[C@@H](O)[C@@H]2[18F])c(=O)[nH]c1=O [[^18F]FMAU] in the records? 0.265

Partition coefficients of 1-octanol/PBS for O=c1[nH]c(=O)n([C@@H]2O[C@H](CO)[C@@H](O)[C@@H]2[18F])cc1F [[^18F]FFAU] ? 0.113

Data request, read-out Partition coefficients of 1-octanol/PBS, for CCc1cn([C@@H]2O[C@H](CO)[C@@H](O)[C@@H]2[18F])c(=O)[nH]c1=O [[^18F]FEAU] 0.837

Others:
Request the reported Partition coefficients of 1-octanol/PBS associated with O=c1[nH]c(=O)n([C@@H]2O[C@H](CO)[C@@H](O)[C@@H]2[18F])cc1I [[^18F]FIAU] 0.780

---

# procedure summary: 1-octanol/PBS partition coefficient (Log P)
# Assay type: physicochemical
# settings: 1-octanol/PBS pH 7.4, room temperature, quintuplicate
parameter measured: logP
One number for each entry.

Entry O=c1[nH]c(=O)n([C@@H]2O[C@H](CO)[C@@H](O)[C@@H]2F)cc1Br [[^18F]FBAU] : reported logP = ? -0.367

---

# procedure summary: 1-octanol/PBS partition coefficient (Log P)
# Assay type: physicochemical
# settings: 1-octanol/PBS pH 7.4, room temperature, quintuplicate
Would you mind telling me the reported Log P of each entry?
Give bare numbers.

These solved cases illustrate the format of a correct answer.
Entry under review: O=c1[nH]c(=O)n([C@@H]2O[C@H](CO)[C@@H](O)[C@@H]2[18F])cc1Cl [[^18F]FCAU] . Reported Log P? −0.477

Please give the measured Log P for this molecule: O=c1[nH]c(=O)n([C@@H]2O[C@H](CO)[C@@H](O)[C@@H]2[18F])cc1I [[^18F]FIAU] −0.108

May I ask what Log P has been recorded for O=c1ccn([C@@H]2O[C@H](CO)[C@@H](O)[C@@H]2[18F])c(=O)[nH]1 [[^18F]FAU] ? −0.943

Would you mind telling me what Log P value was observed for CCc1cn([C@@H]2O[C@H](CO)[C@@H](O)[C@@H]2[18F])c(=O)[nH]c1=O [[^18F]FEAU] ? −0.077

Data request, read-out Log P, for O=c1[nH]c(=O)n([C@@H]2O[C@H](CO)[C@@H](O)[C@@H]2[18F])cc1F [[^18F]FFAU] −0.952

Okay, now this molecule:
What does the record list as Log P for Cc1cn([C@@H]2O[C@H](CO)[C@@H](O)[C@@H]2[18F])c(=O)[nH]c1=O [[^18F]FMAU] ? −0.577
